# target-or-test-system: Gamma-aminobutyric acid receptor subunit alpha-6/beta-3/gamma-2 (Homo sapiens, UniProt Q16445+P18507+P28472)
# Sequence (Q16445 whole entry): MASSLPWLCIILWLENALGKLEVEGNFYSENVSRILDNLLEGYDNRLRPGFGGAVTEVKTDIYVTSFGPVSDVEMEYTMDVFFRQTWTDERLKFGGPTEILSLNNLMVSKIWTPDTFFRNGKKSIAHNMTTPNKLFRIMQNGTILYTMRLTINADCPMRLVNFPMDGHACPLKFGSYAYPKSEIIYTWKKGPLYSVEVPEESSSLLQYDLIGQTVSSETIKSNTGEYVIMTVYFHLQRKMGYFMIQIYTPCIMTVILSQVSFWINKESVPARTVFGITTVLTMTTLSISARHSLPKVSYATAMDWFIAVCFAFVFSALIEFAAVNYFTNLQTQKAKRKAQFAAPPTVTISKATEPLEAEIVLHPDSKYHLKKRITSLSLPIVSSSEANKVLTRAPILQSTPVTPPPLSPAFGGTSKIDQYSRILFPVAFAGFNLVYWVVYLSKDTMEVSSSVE
# Sequence (P18507 as listed by the source): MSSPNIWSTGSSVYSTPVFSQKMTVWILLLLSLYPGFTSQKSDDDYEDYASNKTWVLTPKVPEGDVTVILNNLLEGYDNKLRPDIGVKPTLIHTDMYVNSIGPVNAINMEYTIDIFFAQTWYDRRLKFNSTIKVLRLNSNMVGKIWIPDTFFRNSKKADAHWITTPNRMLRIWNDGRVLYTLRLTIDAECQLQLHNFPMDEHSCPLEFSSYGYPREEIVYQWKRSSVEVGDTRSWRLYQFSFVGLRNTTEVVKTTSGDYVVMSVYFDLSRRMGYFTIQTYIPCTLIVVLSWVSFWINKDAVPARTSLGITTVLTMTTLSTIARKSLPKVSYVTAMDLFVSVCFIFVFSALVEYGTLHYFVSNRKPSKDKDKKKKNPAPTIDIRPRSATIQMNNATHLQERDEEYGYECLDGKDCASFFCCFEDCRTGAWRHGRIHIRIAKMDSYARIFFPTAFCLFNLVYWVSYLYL
# Sequence (P28472 whole entry): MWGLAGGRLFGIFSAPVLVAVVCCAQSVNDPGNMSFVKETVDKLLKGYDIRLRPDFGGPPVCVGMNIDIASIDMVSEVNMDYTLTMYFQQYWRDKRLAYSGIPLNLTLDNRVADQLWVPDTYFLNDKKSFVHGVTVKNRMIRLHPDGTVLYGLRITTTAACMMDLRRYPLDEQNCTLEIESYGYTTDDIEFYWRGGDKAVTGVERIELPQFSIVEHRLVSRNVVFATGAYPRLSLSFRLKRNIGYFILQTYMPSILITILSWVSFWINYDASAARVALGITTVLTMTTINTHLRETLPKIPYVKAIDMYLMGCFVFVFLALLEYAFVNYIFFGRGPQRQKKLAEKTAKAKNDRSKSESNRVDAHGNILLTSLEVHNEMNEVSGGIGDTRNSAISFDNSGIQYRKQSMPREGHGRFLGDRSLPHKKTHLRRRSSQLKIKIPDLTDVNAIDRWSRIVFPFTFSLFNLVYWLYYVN
# assay-method-text: Binding affinity measured using LtK- cell membranes expressing Gamma-aminobutyric acid A receptor alpha-6-beta-3-gamma-2
pKi: −log10 of the molar value.
assay-readout: pKi

The compound CCOC(=O)c1[nH]cc2nc3ccc(OCc4ccccc4)cc3c-2c1COC showed pKi equal to < 6.00
